Recorded values, source patent US20250248979A1.

Biological target: UniProt P36969
Assay: GPX4 activity assay in cell lysates (NADPH-coupled)
Assay type: biochemical
Parameters: endogenous in cells; host or cells: A-673 cell lysate
Conditions: 2.5 μM
REPORTED METRIC: GPX4% inhibition at 2.5 μM (%)
// return numeric value only (unit: %, not printed)

Qu. What value of GPX4% inhibition at 2.5 μM has been reported for the following compound? CCOc1ccc(-c2ccc3c(C(=O)NC(C)(C)COC(=O)CCl)nn(C)c3c2)cc1Cl
Ans. 106.9

Qu. Which GPX4% inhibition at 2.5 μM reading was recorded for the compound Cn1nc(C(=O)NC(C)(C)C(C)(C)OC(=O)CCl)c2ccc(-c3ccc(N4CCOCC4)c(Cl)c3)cc21 ?
Ans. 68.5

Qu. Given the compound Cn1nc(C(=O)NC(C)(C)COC(=O)CCl)c2ccc(-c3ccc(OCC(F)(F)F)cc3)cc21 , what is its reported GPX4% inhibition at 2.5 μM?
Ans. 2.4

Qu. For COc1ccc(CNS(=O)(=O)c2ccc(-c3ccc4c(C(=O)NC(C)(C)COC(=O)CCl)nn(C)c4c3)cc2)cc1 , what is its reported GPX4% inhibition at 2.5 μM?
Ans. 26.3

* * *

I'd appreciate it if you could supply GPX4% inhibition at 2.5 μM values for the items below.
Target: GPX4 (Homo sapiens)
Experiment: GPX4 activity assay in cell lysates (NADPH-coupled)
Format: biochemical
Parameters: endogenous in cells; host or cells: A-673 cell lysate
Settings: 2.5 μM; generation 2
Write the number in % without appending the unit.

Qu. Look up GPX4% inhibition at 2.5 μM with GPX4 (Homo sapiens) for this molecule: Cn1nc(C(=O)NC(COC(=O)CCl)C(F)(F)F)c2ccc(Br)cc21 (stereo not drawn)
Ans. −37.4

Qu. # query: GPX4% inhibition at 2.5 μM | item Cn1nc(-c2nnc(C(C)(OC(=O)CCl)C(F)(F)F)o2)c2ccc(Br)cc21 (stereo not drawn) | system: GPX4 (Homo sapiens)
Ans. 10.6

Qu. Lab note: need GPX4% inhibition at 2.5 μM for C=C(CN1CCOCC1)C(=O)NCC(C)(C)NC(=O)c1nn(C)c2cc(Br)ccc12 on GPX4 (Homo sapiens), anyone have it?
Ans. 15.8

Qu. Test system GPX4 (Homo sapiens); read-out GPX4% inhibition at 2.5 μM; what value for Cn1nc(C(=O)NC(C)(C)CNC(=O)CCl)c2ccc(Br)cc21 ?
Ans. −9.6

Qu. Can you look up GPX4% inhibition at 2.5 μM on GPX4 (Homo sapiens) for Cn1nc(C(=O)NC(C)(C)CC(=O)N2CCN(C(=O)CCl)CC2)c2ccc(Br)cc21 ?
Ans. 39.0

Qu. Give recorded GPX4% inhibition at 2.5 μM with GPX4 (Homo sapiens) for the following molecule: Cn1nc(C(=O)N2CCC(OC(=O)CCl)C2(C)C)c2ccc(Br)cc21 (stereo not drawn)
Ans. 41.9

* * *

Test: in vitro
Assay type: in vitro ADME, mouse
Conditions: mouse, microsomes, pH 7.4
REPORTED METRIC: half-life at 1 μM (min)
Write down the numeric answer in min and omit the unit.

Qu. # input molecule: Cn1nc(C(=O)NC(C)(C)COC(=O)CCl)c2ccc(Br)cc21 ; wanted: its half-life at 1 μM
Ans. 5.3

* * *

Target: panel of 44 targets (GPCRs, ion channels, enzymes, transporters, nuclear receptors) (Homo sapiens)
Sequence (Q14432 whole entry, looked up): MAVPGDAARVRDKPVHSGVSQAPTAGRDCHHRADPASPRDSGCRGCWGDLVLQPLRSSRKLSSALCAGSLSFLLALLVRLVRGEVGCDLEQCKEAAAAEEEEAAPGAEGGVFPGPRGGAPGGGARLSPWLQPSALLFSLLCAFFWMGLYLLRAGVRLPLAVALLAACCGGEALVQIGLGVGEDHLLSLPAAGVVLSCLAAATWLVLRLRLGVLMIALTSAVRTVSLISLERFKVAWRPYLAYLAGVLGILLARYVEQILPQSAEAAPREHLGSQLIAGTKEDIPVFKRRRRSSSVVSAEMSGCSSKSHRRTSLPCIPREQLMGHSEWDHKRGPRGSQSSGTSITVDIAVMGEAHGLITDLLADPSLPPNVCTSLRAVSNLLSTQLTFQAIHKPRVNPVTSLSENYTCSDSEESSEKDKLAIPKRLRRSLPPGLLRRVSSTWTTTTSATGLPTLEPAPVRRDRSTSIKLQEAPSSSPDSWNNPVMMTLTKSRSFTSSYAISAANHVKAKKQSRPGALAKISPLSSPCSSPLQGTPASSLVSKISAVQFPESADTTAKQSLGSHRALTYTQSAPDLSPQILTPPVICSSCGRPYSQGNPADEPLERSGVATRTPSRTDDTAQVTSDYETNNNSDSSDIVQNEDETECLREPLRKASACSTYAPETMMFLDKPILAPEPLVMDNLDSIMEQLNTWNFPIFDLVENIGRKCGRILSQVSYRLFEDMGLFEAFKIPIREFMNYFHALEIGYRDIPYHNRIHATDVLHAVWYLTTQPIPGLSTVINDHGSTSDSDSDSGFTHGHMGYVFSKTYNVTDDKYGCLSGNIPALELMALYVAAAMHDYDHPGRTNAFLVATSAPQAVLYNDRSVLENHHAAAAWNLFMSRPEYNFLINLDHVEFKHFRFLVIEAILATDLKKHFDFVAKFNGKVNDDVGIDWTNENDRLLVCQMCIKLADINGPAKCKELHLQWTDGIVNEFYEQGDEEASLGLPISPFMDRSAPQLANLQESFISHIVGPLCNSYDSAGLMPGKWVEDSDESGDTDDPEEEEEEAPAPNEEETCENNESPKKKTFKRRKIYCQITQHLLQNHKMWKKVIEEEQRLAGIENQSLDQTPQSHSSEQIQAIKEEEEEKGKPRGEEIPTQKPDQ
Conditions: PDE3A; read-out: IC50 (M) Reference Compound (EC50 for agonist)
REPORTED METRIC: IC50
# number then unit; no other words

Qu. // query IC50 value for entry CC(C)Cn1c(=O)n(C)c(=O)c2[nH]cnc21
Ans. 5.22e-06 M

* * *

Target: GPX4 (Homo sapiens, UniProt P36969)
Sequence (P36969 1-170 isoform P36969-2): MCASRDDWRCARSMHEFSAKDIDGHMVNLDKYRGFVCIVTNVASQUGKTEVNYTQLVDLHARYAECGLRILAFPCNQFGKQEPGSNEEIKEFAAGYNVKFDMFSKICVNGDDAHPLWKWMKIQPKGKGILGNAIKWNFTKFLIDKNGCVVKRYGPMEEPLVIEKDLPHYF
Assay: GPX4 activity assay in cell lysates (NADPH-coupled)
Assay type: biochemical
Parameters: endogenous in cells; host or cells: A-673 cell lysate
Conditions: 2.5 μM; 4th generation
REPORTED METRIC: GPX4% inhibition at 2.5 μM (%)
Write down the numeric answer in % and omit the unit.

Qu. Tell me the measured GPX4% inhibition at 2.5 μM of CSc1ccc(-c2ccc3c(C(=O)NC(C)(C)COC(=O)CCl)nn(Cc4ccc(Cl)cc4)c3c2)cc1Cl [QW-847] , please.
Ans. 88.5

Qu. // query GPX4% inhibition at 2.5 μM value for entry COc1c(Cl)cc(-c2ccc3c(C(=O)NC(C)(C)COC(=O)CCl)nn(Cc4ccc(Cl)cc4)c3c2)cc1C(F)(F)F [QW-836]
Ans. 45.7

Qu. Recorded GPX4% inhibition at 2.5 μM for CC(C)(COC(=O)CCl)NC(=O)c1nn(Cc2ccc(Cl)cc2)c2cc(-c3ccc(N4CCOCC4)c(Cl)c3)ccc12 [QW-824] , please?
Ans. 90.5

Qu. Please look up its GPX4% inhibition at 2.5 μM: COc1ccc(-c2ccc3c(C(=O)NC(C)(C)COC(=O)C#C[Si](C)(C)C)nn(Cc4ccc(Cl)cc4)c3c2)cc1Cl [QW-832]
Ans. 58.9

* * *

Biological target: GPX4 (Homo sapiens)
Assay: GPX4 activity assay in cell lysates (NADPH-coupled)
Assay type: biochemical
Set-up: endogenous in cells; host or cells: A-673 cell lysate
Details: 2.5 μM
Field: GPX4% inhibition at 2.5 μM. Provide a value for each of the compounds that follow.
Unit % implied. Number only.

Qu. // lookup GPX4% inhibition at 2.5 μM | system=GPX4 (Homo sapiens) | key= Cn1nc(C(=O)NC(C)(C)C(C)(C)OC(=O)CCl)c2ccc(-c3ccc(OC(C)(C)C)cc3)cc21
Ans. −36.4

Qu. Form field: GPX4% inhibition at 2.5 μM recorded for Cn1nc(-n2cc(C(C)(C)COC(=O)CCl)nn2)c2ccc(-c3ccc4c(c3)OCO4)cc21 with GPX4 (Homo sapiens) (enter value)
Ans. 22.3

Qu. Find GPX4% inhibition at 2.5 μM (GPX4 (Homo sapiens)) for the entry COc1c(Cl)cc(-c2ccc3c(C(=O)NC(C)(C)C(C)(C)OC(=O)CCl)nn(C)c3c2)cc1Cl
Ans. 20.4

Qu. Return GPX4% inhibition at 2.5 μM measured with GPX4 (Homo sapiens) given this compound: COc1ccc(-c2ccc3c(C(=O)NC(C)(C)COC(=O)C#C[Si](C)(C)C)nn(C)c3c2)cc1Cl
Ans. −5.7

Qu. Please state recorded GPX4% inhibition at 2.5 μM (tested on GPX4 (Homo sapiens)) of COc1c(Cl)cc(-c2ccc3c(C(=O)NC(C)(C)C(C)OC(=O)CCl)nn(C)c3c2)cc1Cl (racemic)
Ans. 55.4

Qu. Quick check: GPX4% inhibition at 2.5 μM on GPX4 (Homo sapiens), item COc1ccc(-c2ccc3c(-n4cc(CCOC(=O)CCl)nn4)nn(C)c3c2)cc1Cl ?
Ans. 43.2

Qu. Entry COc1ccc(-c2ccc3c(C(=O)N4CCC(OC(=O)CCl)C4(C)C)nn(C)c3c2)cc1Cl (centres unmarked) , system GPX4 (Homo sapiens): what GPX4% inhibition at 2.5 μM was measured?
Ans. 22.9

Qu. Param readout = GPX4% inhibition at 2.5 μM; param system = GPX4 (Homo sapiens); param query = Cn1nc(C(=O)NC(C)(C)COC(=O)CCl)c2ccc(-c3ccc(C(=O)N4CCN(C(=O)OC(C)(C)C)CC4)cc3)cc21 ; response: value
Ans. 42.6

Qu. So what GPX4% inhibition at 2.5 μM did Cn1nc(C(=O)NC(COC(=O)CCl)C(F)(F)F)c2ccc(-c3ccc(N4CCOCC4)c(Cl)c3)cc21 (centres unmarked) get with GPX4 (Homo sapiens)?
Ans. 7.9

Qu. // fetch GPX4 (Homo sapiens) GPX4% inhibition at 2.5 μM for Cn1nc(C(=O)NC(C)(C)CNC(=O)CCl)c2ccc(-c3ccc(Cl)c(Cl)c3)cc21
Ans. 50.2

Qu. API: value(readout= GPX4% inhibition at 2.5 μM, system= GPX4 (Homo sapiens), query= COc1ccc(-c2ccc3c(-n4cc(C(C)(C)CNC(=O)CCl)nn4)nn(C)c3c2)cc1Cl )
Ans. −19.6

Qu. API: value(readout= GPX4% inhibition at 2.5 μM, system= GPX4 (Homo sapiens), query= COc1c(Cl)cc(-c2ccc3c(-n4cc(C(C)(C)COC(=O)CCl)nn4)nn(C)c3c2)cc1Cl )
Ans. 68.5

Qu. Form field: GPX4% inhibition at 2.5 μM recorded for Cn1nc(-n2cc(CCOC(=O)CCl)nn2)c2ccc(-c3ccc(N4CCOCC4)c(Cl)c3)cc21 with GPX4 (Homo sapiens) (enter value)
Ans. 41.6

Qu. Lab note: need GPX4% inhibition at 2.5 μM for Cn1nc(C(=O)NC(C)(C)COC(=O)CCl)c2ccc(-c3cc4cc(F)ccc4n3C(=O)OC(C)(C)C)cc21 on GPX4 (Homo sapiens), anyone have it?
Ans. −1.2

Qu. Under GPX4 (Homo sapiens): GPX4% inhibition at 2.5 μM value of COc1ccc(-c2ccc3c(C(=O)NCC(C)(C)OC(=O)CCl)nn(C)c3c2)cc1Cl ?
Ans. −25.3

Qu. Value wanted: GPX4% inhibition at 2.5 μM (GPX4 (Homo sapiens)) of entry Cn1nc(C(=O)NC(C)(C)COC(=O)CCl)c2ccc(-c3ccc(S(=O)(=O)N4CCC4)cc3)cc21
Ans. 23.8

Qu. Form field - read-out: GPX4% inhibition at 2.5 μM; system: GPX4 (Homo sapiens); submitted item: Cn1nc(C(=O)NC(C)(C)COC(=O)CCl)c2ccc(-c3ccc(C(F)(F)F)c(Cl)c3)cc21
Ans. 78.5
